Biological target: ΔF508-CFTR (Homo sapiens, UniProt P13569, DEL508-508)
Construct: Fisher rat epithelial (FRT) cells for Ussing chamber follow-up
Sequence (P13569 with tags, fused parts or gaps DEL508-508): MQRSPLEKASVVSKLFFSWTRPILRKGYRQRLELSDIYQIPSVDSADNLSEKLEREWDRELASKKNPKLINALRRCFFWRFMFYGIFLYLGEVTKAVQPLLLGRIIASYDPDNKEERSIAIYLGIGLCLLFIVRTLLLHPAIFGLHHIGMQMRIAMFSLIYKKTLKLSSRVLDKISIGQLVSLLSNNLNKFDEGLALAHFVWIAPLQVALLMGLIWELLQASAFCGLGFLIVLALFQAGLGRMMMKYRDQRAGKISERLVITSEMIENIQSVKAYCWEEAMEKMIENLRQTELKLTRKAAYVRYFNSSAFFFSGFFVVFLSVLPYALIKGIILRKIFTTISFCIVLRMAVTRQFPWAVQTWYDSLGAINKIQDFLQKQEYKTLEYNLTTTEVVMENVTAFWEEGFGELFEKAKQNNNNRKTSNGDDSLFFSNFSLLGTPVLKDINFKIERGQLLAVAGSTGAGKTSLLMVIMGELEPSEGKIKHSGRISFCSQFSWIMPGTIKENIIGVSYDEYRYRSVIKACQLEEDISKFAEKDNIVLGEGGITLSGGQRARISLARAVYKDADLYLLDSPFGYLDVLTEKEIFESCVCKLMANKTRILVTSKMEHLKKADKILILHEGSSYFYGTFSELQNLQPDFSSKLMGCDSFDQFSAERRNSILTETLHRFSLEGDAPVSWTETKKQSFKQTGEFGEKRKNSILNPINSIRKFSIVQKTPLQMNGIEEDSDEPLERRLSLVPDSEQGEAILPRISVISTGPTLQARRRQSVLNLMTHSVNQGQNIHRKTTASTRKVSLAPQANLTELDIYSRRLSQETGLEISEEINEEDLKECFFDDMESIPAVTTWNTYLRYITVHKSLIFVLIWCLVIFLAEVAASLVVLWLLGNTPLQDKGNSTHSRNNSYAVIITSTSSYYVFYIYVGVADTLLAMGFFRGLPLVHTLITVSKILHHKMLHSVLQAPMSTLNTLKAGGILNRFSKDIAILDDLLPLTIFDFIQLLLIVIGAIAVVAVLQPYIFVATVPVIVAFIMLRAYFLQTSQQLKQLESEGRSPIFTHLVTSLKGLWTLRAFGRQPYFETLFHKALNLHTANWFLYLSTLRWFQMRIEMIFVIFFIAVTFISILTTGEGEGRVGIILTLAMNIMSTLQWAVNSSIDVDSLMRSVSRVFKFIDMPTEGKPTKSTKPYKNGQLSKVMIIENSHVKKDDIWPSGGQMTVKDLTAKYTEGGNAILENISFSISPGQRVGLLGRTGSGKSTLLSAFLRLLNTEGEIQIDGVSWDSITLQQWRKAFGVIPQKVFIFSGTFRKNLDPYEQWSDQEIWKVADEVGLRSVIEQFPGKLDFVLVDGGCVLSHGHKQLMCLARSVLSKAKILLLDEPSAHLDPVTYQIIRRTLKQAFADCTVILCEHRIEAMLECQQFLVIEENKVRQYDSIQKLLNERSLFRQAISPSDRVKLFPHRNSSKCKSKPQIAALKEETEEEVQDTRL
Assay: Assays for ΔF508-CFTR correction and potentiator properties (membrane potential optical and electrophysiological methods)
Conditions: CFTR modulation, tested using the above methods
pEC50: −log10 of the molar value.
Assay metric: pEC50

{"columns": ["Molecule", "Assay metric", "Value observed"],
 "data": [
  ["COc1cccc(C(=O)Nc2nc(-c3cccc(OC)c3)cs2)c1", "pEC50", "4.60 to 5.00"],
  ["O=C(Nc1ncc(Cc2ccccc2)s1)C1c2ccccc2Oc2ccccc21", "pEC50", "> 5.00"],
  ["O=C(Nc1ncc(Cc2ccccc2)o1)c1ccccc1", "pEC50", "4.60 to 5.00"],
  ["O=C(Nc1ncc(Cc2ccccc2)s1)C(c1ccccc1)C1CCCC1 (centres unmarked)", "pEC50", "> 5.00"],
  ["COc1ccccc1-c1csc(NC(=O)c2cccc(Cl)c2)n1", "pEC50", "4.60 to 5.00"],
  ["O=C(Cc1ccccc1)Nc1nc(-c2ccccc2)c(-c2ccccc2)s1", "pEC50", "> 5.00"],
  ["CC(C)C(C(=O)Nc1ncc(Cc2cccc(Cl)c2)s1)c1ccccc1 (centres unmarked)", "pEC50", "> 5.00"],
  ["CCC(C(=O)Nc1ncc(Cc2ccc(Cl)cc2)o1)c1ccccc1 (centres unmarked)", "pEC50", "> 5.00"],
  ["COc1ccccc1-c1csc(NC(=O)c2ccc(C)cc2)n1", "pEC50", "> 5.00"],
  ["CCCCC(=O)Nc1nc(-c2cc(C)ccc2C)cs1", "pEC50", "4.60 to 5.00"],
  ["O=C(Nc1ncc(Cc2ccccc2Cl)s1)c1cccc2ccccc12", "pEC50", "4.60 to 5.00"],
  ["Cc1cccc2sc(NC(=O)c3ccccc3Cl)nc12", "pEC50", "> 5.00"],
  ["COc1ccccc1Cc1cnc(NC(=O)C2Cc3ccccc32)o1 (centres unmarked)", "pEC50", "4.22 to 4.60"],
  ["COC(=O)CC(C(=O)Nc1ncc(Cc2ccccc2Cl)s1)c1ccccc1 (centres unmarked)", "pEC50", "> 5.00"],
  ["CCOC(=O)C1CCCN(C(C(=O)Nc2ncc(Cc3ccccc3Cl)s2)c2ccccc2)C1 (centres unmarked)", "pEC50", "> 5.00"],
  ["O=C(Nc1nc2c(s1)CCCC2)c1cccc(Br)c1", "pEC50", "> 5.00"],
  ["O=C(Nc1ncc(Cc2ccccc2Cl)s1)C1CCCC1", "pEC50", "> 5.00"],
  ["N#Cc1ccccc1Cc1cnc(NC(=O)C(c2ccccc2)C2CCCCC2)s1 (centres unmarked)", "pEC50", "> 5.00"],
  ["CCC(C)C(C(=O)Nc1ncc(Cc2ccc(Cl)cc2)o1)c1ccccc1 (centres unmarked)", "pEC50", "> 5.00"],
  ["Cc1ccc(C(=O)Nc2nc(-c3ccccc3Cl)cs2)cc1", "pEC50", "> 5.00"],
  ["CCC(C)C(C(=O)Nc1ncc(Cc2ccccc2Cl)s1)c1ccccc1 (centres unmarked)", "pEC50", "> 5.00"],
  ["CCc1ccc(C(=O)Nc2nc3ccccc3s2)cc1", "pEC50", "4.60 to 5.00"],
  ["O=C(Nc1ncc(Cc2cc(Cl)ccc2Cl)s1)C(c1ccccc1)c1ccccc1", "pEC50", "> 5.00"],
  ["Cc1ccc(C(=O)Nc2nc(-c3ccccc3)c(-c3ccccc3)s2)cc1", "pEC50", "> 5.00"],
  ["CCC(C(=O)Nc1ncc(Cc2cc(F)ccc2OC)s1)c1ccccc1 (centres unmarked)", "pEC50", "> 5.00"],
  ["COc1ccc(C(=O)Nc2nc(-c3ccccc3)cs2)cc1", "pEC50", "4.60 to 5.00"],
  ["O=C(Nc1nc(-c2ccccc2Cl)cs1)c1ccccc1", "pEC50", "> 5.00"],
  ["O=C(Nc1nc(-c2ccccc2)c(-c2ccccc2)s1)c1ccc(Cl)cc1", "pEC50", "4.60 to 5.00"],
  ["O=C(Nc1ncc(Cc2ccccc2Cl)s1)C1c2ccccc2Oc2ccccc21", "pEC50", "> 5.00"],
  ["COc1ccccc1Cc1cnc(NC(=O)C(Cc2ccccc2)N(C)C)s1 (centres unmarked)", "pEC50", "4.22 to 4.60"],
  ["O=C(Nc1nc(-c2ccccc2)c(-c2ccccc2)s1)c1cccc(Cl)c1", "pEC50", "> 5.00"],
  ["O=C(Nc1nc(-c2ccccc2)c(-c2ccccc2)s1)C(c1ccccc1)C1CCCC1 (centres unmarked)", "pEC50", "> 5.00"],
  ["O=C(Nc1ncc(Cc2ccccc2Cl)o1)c1ccccc1", "pEC50", "> 5.00"],
  ["CCN(CC)C(C(=O)Nc1ncc(Cc2ccccc2Cl)s1)c1ccccc1 (centres unmarked)", "pEC50", "> 5.00"],
  ["CC(C)C(=O)Nc1nc(-c2ccccc2)cs1", "pEC50", "4.60 to 5.00"],
  ["Cc1ccccc1C(=O)Nc1nc(-c2ccccc2)cs1", "pEC50", "4.60 to 5.00"],
  ["CN(C1CCCCC1)C(C(=O)Nc1ncc(Cc2ccccc2Cl)s1)c1ccccc1 (centres unmarked)", "pEC50", "> 5.00"],
  ["COc1ccc(C(=O)Nc2nc(-c3ccccc3)c(-c3ccccc3)s2)cc1", "pEC50", "> 5.00"]
]}
